# Test system: U2OS
# Assay Explanation: Multiplex assay against U2OS
# Assay type: toxicity, cell-based
# Protocol Conditions: human, 12 h, 1 µM, compound concentration 1 uM, replicate 2
# Total Cell Count per record follows
Parameter Measured: Total Cell Count

INSERT INTO assay_data (compound, measured_result) VALUES
  ('O=C(CCCc1ccccc1)Nc1nc2ccccc2c(=O)s1', 113),
  ('CCCOc1ccc2[nH]cc(C3=CCNCC3)c2n1.Cl', 98),
  ('Cc1c(CC(=O)O)c2cccnc2n1Cc1ccc(S(C)(=O)=O)cc1C(F)(F)F [FEVIPIPRANT]', 118),
  ('CC(C)COc1ccc(CNC(=O)N(Cc2ccc(F)cc2)C2CCN(C)CC2)cc1 [PIMAVANSERIN]', 136),
  ('Cc1cccc(NC(=O)CN2CCC(c3ccccn3)CC2)c1.Cl.Cl', 111),
  ('CCc1cc2cc(NS(=O)(=O)c3ccc(C#N)cc3)ccc2n(CC)c1=O', 113),
  ('CC(C)c1noc(N2CCC(COc3ccc(-c4ccc(S(C)(=O)=O)cc4)nc3)CC2)n1 [GSK-1292263]', 114),
  ('Cc1noc(-c2ccc(-c3ccc(CC(=O)O)cc3)cc2)c1NC(=O)O[C@H](C)c1ccccc1Cl', 101),
  ('CC(C)(C)c1cc(NC(=O)Nc2ccc(-c3cn4c(n3)sc3cc(OCCN5CCOCC5)ccc34)cc2)no1 [QUIZARTINIB]', 119),
  ('Cl.N=C(N)NC(=O)Cc1c(Cl)cccc1Cl [GUANFACINE HYDROCHLORIDE]', 129),
  ('C[C@H](N)COC(=O)[C@@H](CCCCN)NC(=O)Cc1c(-c2ccc3ccccc3c2)[nH]c2c1ccc1ccccc12', 128),
  ('COC[C@@H](c1ccc(C(F)(F)F)cc1)N1CCN(C2(C)CCN(C(=O)c3c(C)ncnc3C)CC2)C[C@@H]1C.O=C(O)/C=C\C(=O)O [VICRIVIROC MALEATE]', 105),
  ('CN1CCN(c2cc(-c3ccccc3)nc(N)n2)CC1', 141),
  ('N#Cc1cc(F)cc(-c2nc(-c3ccc(F)cn3)no2)c1', 101),
  ('COc1cccc2c1c(NS(=O)(=O)c1ccc(Cl)s1)nn2Cc1cccc(CNC(=O)C(C)(C)O)c1', 201);

---

# Total Cell Count per record follows
# Test system: Fibroblast
# Assay Explanation: Multiplex assay against human fibroblast
# Type: toxicity, cell-based
# Protocol Conditions: 24 h, 1 µM, compound concentration 1 uM, replicate 1
Parameter Measured: Total Cell Count

INSERT INTO results (compound, measured_result) VALUES
  ('Cc1sc2c(c1C)C(c1ccc(Cl)cc1)=N[C@@H](CC(=O)NCCCCCCCCNC(=O)COc1cccc3c1C(=O)N(C1CCC(=O)NC1=O)C3=O)c1nnc(C)n1-2 (stereo partly drawn)', 107),
  ('COc1cccc2c1c(NS(=O)(=O)c1ccc(Cl)s1)nn2Cc1cccc(CNC(=O)C(C)(C)O)c1', 144),
  ('Cl.NCCc1ccc(O)c(O)c1 [DOPAMINE HYDROCHLORIDE]', 112),
  ('CCCCCC(O)/C=C/[C@H]1C(=O)CC(O)C1C/C=C\CCCC(=O)O (stereo partly drawn)', 169),
  ('CN1CCN(c2cc(-c3ccccc3)nc(N)n2)CC1', 145),
  ('CC[C@@H](C)Nc1nc(C)nc2c(-c3ccc(OC)nc3C)c(C)nn12', 157),
  ('CN(C)C(=O)Cn1cc(-c2ccc(-c3cncc4ccccc34)cc2)cn1', 137),
  ('Cc1onc(-c2ccccc2Cl)c1C(=O)N(C)c1ccc(Cl)cc1', 178),
  ('CN[C@@H](C)C(=O)N[C@H](C(=O)N1CCC[C@H]1C(=O)Nc1snnc1-c1ccccc1)C1CCCCC1', 123),
  ('O=C(NCCN1CCC(n2c(=O)[nH]c3cc(Cl)ccc32)CC1)c1ccc(F)cc1 [HALOPEMIDE]', 128),
  ('CCCCC1=NC2(CCCC2)C(=O)N1Cc1ccc(-c2ccccc2-c2nnn[nH]2)cc1', 170),
  ('Cc1c(CC(=O)O)c2cccnc2n1Cc1ccc(S(C)(=O)=O)cc1C(F)(F)F', 156),
  ('N#Cc1c(Oc2cccc(OS(=O)(=O)CCCC(F)(F)F)c2)cccc1C(F)(F)F', 148),
  ('CCCOc1ccc2[nH]cc(C3=CCNCC3)c2n1.Cl', 155),
  ('CC(C)(C)c1cc(NC(=O)Nc2ccc(-c3cn4c(n3)sc3cc(OCCN5CCOCC5)ccc34)cc2)no1', 137),
  ('CC(C)COc1ccc(CNC(=O)N(Cc2ccc(F)cc2)C2CCN(C)CC2)cc1', 186),
  ('NCCc1cn(S(=O)(=O)c2c(Cl)nc3sccn23)c2ccccc12.O=C(O)C(=O)O', 156),
  ('CC(C)c1noc(N2CCC(COc3ccc(-c4ccc(S(C)(=O)=O)cc4)nc3)CC2)n1', 182),
  ('COc1ccccc1N1CCN(C[C@@H](C(=O)NC(C)(C)C)c2ccccc2)CC1.Cl.Cl', 143),
  ('CCCCC(=O)N(Cc1ccc(-c2ccccc2-c2nnn[nH]2)cc1)[C@H](C(=O)O)C(C)C', 146),
  ('Cc1noc(-c2ccc(-c3ccc(CC(=O)O)cc3)cc2)c1NC(=O)O[C@H](C)c1ccccc1Cl', 102),
  ('C[C@H](N)COC(=O)[C@@H](CCCCN)NC(=O)Cc1c(-c2ccc3ccccc3c2)[nH]c2c1ccc1ccccc12', 179),
  ('Br.CS(=O)(=O)Nc1c(O)ccc2c1CCCC2C1=NCCN1 (stereo not drawn)', 159),
  ('CC(=O)Nc1cccc2c1c(Sc1ccc(Cl)cc1)c(C)n2CC(=O)O', 168),
  ('Cl.N=C(N)NC(=O)Cc1c(Cl)cccc1Cl [GUANFACINE HYDROCHLORIDE]', 169),
  ('Cc1cnc(-c2cc(N3CCN(C(=O)CCS(C)(=O)=O)CC3)ncc2Cl)c(C)c1', 97),
  ('COC[C@@H](c1ccc(C(F)(F)F)cc1)N1CCN(C2(C)CCN(C(=O)c3c(C)ncnc3C)CC2)C[C@@H]1C.O=C(O)/C=C\C(=O)O [VICRIVIROC MALEATE]', 138),
  ('N#Cc1cc(F)cc(-c2nc(-c3ccc(F)cn3)no2)c1', 131),
  ('O=C(CCCc1ccccc1)Nc1nc2ccccc2c(=O)s1', 147),
  ('Cc1cccc(NC(=O)CN2CCC(c3ccccn3)CC2)c1.Cl.Cl', 134),
  ('O=C1[C@H](Cc2ccc(O)cc2)N2C(=O)CCN(C(=O)NCc3ccccc3)[C@H]2CN1Cc1cccc2ccccc12', 158),
  ('CC(/C=C1\SC(=S)N(CCCC(=O)Nc2ccc(C(=O)O)c(O)c2)C1=O)=C\c1ccccc1', 208),
  ('CCc1cc2cc(NS(=O)(=O)c3ccc(C#N)cc3)ccc2n(CC)c1=O', 157);

---

# Population Healthy Nuclei (%) per record follows
# System: Fibroblast
# Assay Explanation: Multiplex assay against human fibroblast
# Assay type: toxicity, cell-based
# Protocol Conditions: 12 h, 10 µM, compound concentration 10 uM, replicate 1
Parameter Measured: Population Healthy Nuclei (%)

INSERT INTO measurements (compound, measured_result) VALUES
  ('COc1cccc2c1c(NS(=O)(=O)c1ccc(Cl)s1)nn2Cc1cccc(CNC(=O)C(C)(C)O)c1', '72%'),
  ('CCc1cc2cc(NS(=O)(=O)c3ccc(C#N)cc3)ccc2n(CC)c1=O', '54%'),
  ('CCCCCC(O)/C=C/[C@H]1C(=O)CC(O)C1C/C=C\CCCC(=O)O (stereo not given in full)', '69%'),
  ('Cc1cnc(-c2cc(N3CCN(C(=O)CCS(C)(=O)=O)CC3)ncc2Cl)c(C)c1', '71%'),
  ('O=C(CCCc1ccccc1)Nc1nc2ccccc2c(=O)s1', '58%'),
  ('CN1CCN(c2cc(-c3ccccc3)nc(N)n2)CC1', '67%'),
  ('Cc1c(CC(=O)O)c2cccnc2n1Cc1ccc(S(C)(=O)=O)cc1C(F)(F)F', '71%'),
  ('CCCCC(=O)N(Cc1ccc(-c2ccccc2-c2nnn[nH]2)cc1)[C@H](C(=O)O)C(C)C', '56%'),
  ('N#Cc1cc(F)cc(-c2nc(-c3ccc(F)cn3)no2)c1', '67%'),
  ('CC(=O)Nc1cccc2c1c(Sc1ccc(Cl)cc1)c(C)n2CC(=O)O', '64%');

---

# System: Fibroblast
# Assay Explanation: Multiplex assay against human fibroblast
# Assay type: toxicity, cell-based
# Protocol Conditions: 48 h, 1 µM, compound concentration 1 uM, replicate 1
Parameter Measured: Population Tubulin-Different-Phenotype (%)

INSERT INTO assay_data (compound, unit, measured_result) VALUES
  ('COC[C@@H](c1ccc(C(F)(F)F)cc1)N1CCN(C2(C)CCN(C(=O)c3c(C)ncnc3C)CC2)C[C@@H]1C.O=C(O)/C=C\C(=O)O [VICRIVIROC MALEATE]', '%', 34),
  ('Cc1c(CC(=O)O)c2cccnc2n1Cc1ccc(S(C)(=O)=O)cc1C(F)(F)F', '%', 16),
  ('O=C(NCCN1CCC(n2c(=O)[nH]c3cc(Cl)ccc32)CC1)c1ccc(F)cc1 [HALOPEMIDE]', '%', 36),
  ('Cc1cccc(NC(=O)CN2CCC(c3ccccn3)CC2)c1.Cl.Cl', '%', 28);
